These entries and their values trace back to patent US20180355059A1.

# STUDY_TARGET: T1, recombinant human PCSK9-His protein (Immunogen A) (human, UniProt Q8NBP7 31-692, limits assumed, biotinylated in the ELISA assays)
# T1 construct: also called hPCSK9-His; His-tagged hPCSK9; not shown: His tag
# PROTOCOL_DETAILS: ELISA; antibody 66.67 nM
READOUT_LABEL: OD450 nm (OD450 nm)

binder="152G2F7, fully human anti-PCSK9 antibody (antibody, human IgG1, V domains shown) VH: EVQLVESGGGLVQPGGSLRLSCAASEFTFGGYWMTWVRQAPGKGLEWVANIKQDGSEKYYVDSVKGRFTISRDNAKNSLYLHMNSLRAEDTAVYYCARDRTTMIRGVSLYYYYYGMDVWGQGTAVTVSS VL: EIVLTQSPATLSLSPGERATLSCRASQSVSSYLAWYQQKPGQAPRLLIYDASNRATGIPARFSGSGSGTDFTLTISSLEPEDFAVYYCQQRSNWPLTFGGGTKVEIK" quantitative_result=3.07
binder="74C10A8, fully human anti-PCSK9 antibody (antibody, human IgG1, V domains shown) VH: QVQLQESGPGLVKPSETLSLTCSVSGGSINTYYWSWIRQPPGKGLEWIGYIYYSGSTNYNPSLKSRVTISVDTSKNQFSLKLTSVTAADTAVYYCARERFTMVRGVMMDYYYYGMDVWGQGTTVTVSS VL: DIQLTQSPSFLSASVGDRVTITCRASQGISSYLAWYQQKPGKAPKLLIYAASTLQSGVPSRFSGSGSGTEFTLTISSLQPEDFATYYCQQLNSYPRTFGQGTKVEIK" quantitative_result=3.04
binder="76A1B11, fully human anti-PCSK9 antibody (antibody, human IgG1, V domains shown) VH: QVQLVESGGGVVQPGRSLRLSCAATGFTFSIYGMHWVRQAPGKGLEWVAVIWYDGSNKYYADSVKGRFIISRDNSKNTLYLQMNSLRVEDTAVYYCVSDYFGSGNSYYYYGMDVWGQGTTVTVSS VL: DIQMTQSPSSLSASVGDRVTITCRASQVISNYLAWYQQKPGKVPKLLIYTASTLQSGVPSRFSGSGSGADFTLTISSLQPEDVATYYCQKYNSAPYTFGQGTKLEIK" quantitative_result=2.97
